System: Plasmodium berghei
experiment-summary: Screen against P. berghei liver stage (PbLuc), transformed with Luciferase, at 10uM
Format: functional, HepG2
condition-parameters: tested at 10 uM
The campaign covered roughly 69,000 compounds. About 8,600 (12%) showed an effect of 50% or more. This excerpt belongs to a sample that is enriched for strong results.
INHIBITION of 20% or higher: Condition met. Under 20%: Condition not met.

Asked: Tell me whether INHIBITION is at least 20% here: Cc1occc1C(=O)N1CCC2(CCCN(Cc3nccs3)C2)C1 (stereo unspecified)
Given back: Condition not met

Asked: Tell me whether INHIBITION is at least 20% here: "CNC(=O)C(C)(C)N1CCC[C@H]1C(=O)NCC(C)C"
Given back: Condition met

Asked: Tell me whether INHIBITION is at least 20% here: O=C(c1ccc(-n2cccn2)nc1)N1CCCC(n2cccn2)C1 (stereo unspecified)
Given back: Condition met

Asked: Tell me whether INHIBITION is at least 20% here: "Fc1cnc(N2CCn3cc(CNc4ccccn4)nc3C2)nc1"
Given back: Condition met

Asked: Tell me whether INHIBITION is at least 20% here: CS(=O)(=O)NCC1CCCN(C(=O)c2ccc(Cl)o2)C1 (stereo unspecified)
Given back: Condition not met

Asked: Tell me whether INHIBITION is at least 20% here: "COc1ncccc1CNC(=O)c1cc(C)on1"
Given back: Condition not met

Asked: Tell me whether INHIBITION is at least 20% here: "CC[C@H](C)[C@H](N)C(=O)Nc1nc(-c2cnc(N(C)C)nc2)cs1"
Given back: Condition met

Asked: Tell me whether INHIBITION is at least 20% here: O=C(NC1CCCC1)c1cc(C2CCCNC2)n[nH]1 (stereo unspecified)
Given back: Condition not met

Asked: Tell me whether INHIBITION is at least 20% here: CC(C)CN1CCCC12CCN(c1nncs1)C2 (stereo unspecified)
Given back: Condition met

Asked: Tell me whether INHIBITION is at least 20% here: "O=C(C1CCOCC1)N1CCO[C@@H]2[C@@H](OCc3ccncc3)CC[C@@H]21"
Given back: Condition met

----------
Give INHIBITION for every item shown.
Test system: Plasmodium berghei
experiment-summary: Screen against P. berghei liver stage (PbLuc), transformed with Luciferase, at 10uM
Format: functional, HepG2
condition-parameters: tested at 10 uM
The whole screen tested about 69,000 compounds, of which about 8,600 (12%) showed an effect of 50% or more. The full list was thinned out, with strong results kept by preference.
// units = %; emit number, no label

Asked: Provide INHIBITION, tested on Plasmodium berghei, for "COc1cccc(Cn2ncnc2CCSC)c1" .
Given back: -32.9

Asked: Provide INHIBITION, tested on Plasmodium berghei, for Cn1ccc(C(=O)N2CCN(CC(O)C(C)(C)C)CC2)cc1=O (centres undefined) .
Given back: 25.6

Asked: Provide INHIBITION, tested on Plasmodium berghei, for "Cn1cc(CN2CCC[C@]3(C(=O)O)CN(c4ncccn4)C[C@@H]3C2)cn1" .
Given back: -44.2

Asked: Provide INHIBITION, tested on Plasmodium berghei, for "Cn1nnc(NCc2ccccc2OCc2ccc(Cl)cc2)n1" .
Given back: 4.07

Asked: Provide INHIBITION, tested on Plasmodium berghei, for "CCN(Cc1nonc1C)C(=O)c1cc(C(F)(F)F)nn1C" .
Given back: 29.9

Asked: Provide INHIBITION, tested on Plasmodium berghei, for c1ccc(CCc2n[nH]c(C3CCOC3)n2)cc1 (centres undefined) .
Given back: 21.5

Asked: Provide INHIBITION, tested on Plasmodium berghei, for Cc1cc(C)n(CCC(=O)N2CCCCC2c2nccs2)n1 (centres undefined) .
Given back: 36.3

Asked: Provide INHIBITION, tested on Plasmodium berghei, for Cn1cc(C2=NOC(C(=O)NC3(c4ccccc4F)CCCC3)C2)cn1 (centres undefined) .
Given back: 45.6

Asked: Provide INHIBITION, tested on Plasmodium berghei, for CN1CCN(C)C(CNc2c(C#N)cnc3ccc(Cl)cc23)C1 (centres undefined) .
Given back: 7.18

Asked: Provide INHIBITION, tested on Plasmodium berghei, for "CCOc1cc(CNc2nnn(C)n2)ccc1OCc1ccc(Cl)cc1" .
Given back: 63.1

Asked: Provide INHIBITION, tested on Plasmodium berghei, for "OCC1(O)CCN(c2ccnc3c(C(F)(F)F)cccc23)CC1" .
Given back: 17.5

Asked: Provide INHIBITION, tested on Plasmodium berghei, for "CCOC(=O)[C@H]1[C@@H](O)C(=O)N(C)C12CCN(C(=O)c1ccccc1)CC2" .
Given back: 58.5

Asked: Provide INHIBITION, tested on Plasmodium berghei, for Cc1cc(C)cc(-n2ncc3c2CCCC3N)c1 (centres undefined) .
Given back: 37.9

Asked: Provide INHIBITION, tested on Plasmodium berghei, for "C[C@@H]1CN(C2CCN(c3ccccc3)CC2)CC[C@@]1(O)C1CCOCC1" .
Given back: -2.61

Asked: Provide INHIBITION, tested on Plasmodium berghei, for "C[C@@H]1CN(C2CCCCC2)CC[C@@]1(O)C1CCOCC1" .
Given back: 57.7

Asked: Provide INHIBITION, tested on Plasmodium berghei, for Cc1ccc(CC(=O)N2CCOC(c3ncc(CN(C)C)[nH]3)C2)s1 (centres undefined) .
Given back: 7.19

Asked: Provide INHIBITION, tested on Plasmodium berghei, for CNc1snc(C)c1C(=O)N1CCCC(n2nc(C)nc2C)C1 (centres undefined) .
Given back: 19.4

Asked: Provide INHIBITION, tested on Plasmodium berghei, for "C[C@H](NC(=O)Cc1csc(-c2cccc(Cl)c2)n1)C(=O)O" .
Given back: 35

Asked: Provide INHIBITION, tested on Plasmodium berghei, for "c1ncn(Cc2cn3c(n2)CN(CC2CCCCC2)CC3)n1" .
Given back: -10.3

Asked: Provide INHIBITION, tested on Plasmodium berghei, for "CCc1ccc(NC(=O)N2C[C@@H]3C[C@H](C(=O)NC4CCC4)[C@H](C2)O3)cc1" .
Given back: -50

Asked: Provide INHIBITION, tested on Plasmodium berghei, for c1nc(C2CCCCO2)ncc1CN1CCOCC1 (centres undefined) .
Given back: 0.696

Asked: Provide INHIBITION, tested on Plasmodium berghei, for "Cc1nnsc1C(=O)N1C[C@@H]2CC[C@H]1CN(c1cnccn1)C2" .
Given back: 4.35

Asked: Provide INHIBITION, tested on Plasmodium berghei, for "CNS(=O)(=O)CC(=O)N1CC2(CCCC2)c2c(F)cccc21" .
Given back: -17.2

Asked: Provide INHIBITION, tested on Plasmodium berghei, for "Cn1nnc(NCc2ccc(OCc3ccc(Cl)cc3)cc2)n1" .
Given back: -47.4
